Hello, the source for this data is ChEMBL document CHEMBL1136198, in case you need it.

Each entry below carries its recorded IC50.
- EXPERIMENTAL TARGET: K-562 cell line (Homo sapiens)
- EXPERIMENTAL CONDITIONS: k562
# number only, unit uM dm**-3 dropped from output

Previously resolved entries follow.
- COMPOUND STRUCTURE: "COc1ccc(CNc2ncnc3c2ncn3C(C)C)cc1O"
  EXPERIMENTAL TARGET: "K-562 cell line (Homo sapiens)"
  READING UNIT: "uM dm**-3"
  IC50: 104
- COMPOUND STRUCTURE: "CC(C)c1n[nH]c2c(NCc3ccc(O)cc3)ncnc12"
  EXPERIMENTAL TARGET: "K-562 cell line (Homo sapiens)"
  READING UNIT: "uM dm**-3"
  IC50: 112
- COMPOUND STRUCTURE: "CCCCCNc1ncnc2c1ncn2C(C)C"
  EXPERIMENTAL TARGET: "K-562 cell line (Homo sapiens)"
  READING UNIT: "uM dm**-3"
  IC50: 144
- COMPOUND STRUCTURE: "CC(C)n1cnc2c(NCc3ccccc3O)ncnc21"
  EXPERIMENTAL TARGET: "K-562 cell line (Homo sapiens)"
  READING UNIT: "uM dm**-3"
  IC50: 125
- COMPOUND STRUCTURE: "CC(C)n1cnc2c(NCc3ccccc3)ncnc21"
  EXPERIMENTAL TARGET: "K-562 cell line (Homo sapiens)"
  READING UNIT: "uM dm**-3"
  IC50: 113

Now for the compound whose IC50 we want.
Request: Please look at this compound and report its IC50: CC(C)=CCNc1ncnc2c(C(C)C)n[nH]c12
Result: 152
